- Test target: the molecule itself
- Assay remarks: SEC titration of the protomer alone at several injection concentrations (Superdex 200, normalised A230); self-association
Quantity measured: binding result

[[record]]
protein = "202B64 (designed binder, also called LHD202 B64) single chain, LHD202 chain B fused to DHR64: GSSVEFHIVNIDEDVAQLIELAVKLISKEEGTEVRFEKRDGELTIEVKNLHEKDLQLILELIEALLLIARAIELLRQAKEKGSEEDLEKALRTAEESARRLKKVLEKAEKLGNLGVALAAVAGVVLVAELLLRIAKESGSEEALERALRVAEEAARLAKRVLELAEKLGDAEAALLAVELVVRVAELLLRIAKESGSEEALERALRVAEEAARLAKRVLELAEKQGDAEVARRAVELVKRVAELLERIARESGSEEAKERAERVREEARELQERVKELREREGDGSHHWGSGLNDIFEAQKIEWHEGSHHHHHH"
result = "binds"

[[record]]
protein = "275B (designed binder, also called LHD275 B; LHD275B) GGSDVEWRYTNISEETQQKSAEFVLEIALRAGTGVTFTTRQGELQIQVHNLDELLAIAMLCYTLGLLLGDHRVQELAKRAVEAWERGDEERVKKLLIEALKRLVETAEEVVRERPGSNLAKLALEIILRAAEALARAEDPESLKEAVKAAEKVVREQPGSNLAKKALEIILRAAEELAKLPDPEALKEAVKAAEKVVREQPGSELAKKALEIIERAAEELKKSPDPEAQKEAKKAEQKVREERPGSGGSGSHHWGSGSHHHHHH"
result = "binds"

[[record]]
protein = "278B (designed binder, also called LHD278 B; LHD278 chainB) GGSTVTFDITNIDWKSAELIMLAVYDIAQQEGTDVTFSFKEGELQITVKNLHEKWKRLIEMLIEACRRAQDPDPESLKEAVRIAEELVRLHPGNPLARAALKVILTAAEELAKLPDPEALKEAVKAAEKVVREQPGSNLAKKALEIILRAAEELAKLPDPEALKEAVKAAEKVVREQPGSELAKKALEIIERAAEELKKSPDPEAQKEAKKAEQKVREERPGSGGSGSHHWGSGSHHHHHH"
result = "binds"

